Several reports have described pIC50 for CD73 (Homo sapiens (Human)); a selection of those results is presented here.
pIC50: −log10 of the molar value.

Please report the recorded pIC50 for CS(=O)(=O)CC(CO)(OC[C@H]1O[C@@H](n2ncc3c(NC4CCCC4)nc(Cl)nc32)[C@H](O)[C@@H]1O)P(=O)(O)O (stereo partly shown) . ≥ 7.00

Also O=C(N[C@H]1CCN(C(=O)c2ccccc2)C1)O[C@@H]1CCN(c2cn[nH]c(=O)c2Cl)C1 , if possible. 5.00 to 9.00

Another: COC[C@](CO)(OC[C@H]1O[C@@H](c2ccc3c(NC4CCCC4)nc(Cl)nn23)[C@H](O)[C@@H]1O)P(=O)(O)O ≥ 9.30

***
Suppose we examine the molecule COCC(COC)(OC[C@H]1O[C@@H](c2ccc3c(NC4CCCC4)nc(Cl)nn23)[C@H](O)[C@@H]1O)P(=O)(O)O ; what pIC50 value has been reported? ≥ 9.30

Entry to check: COc1ccc(S(=O)(=O)N[C@H]2CC[C@H](NC(=O)O[C@@H]3CCN(c4cn[nH]c(=O)c4Cl)C3)CC2)cn1 5.00 to 9.00

Another molecule to check: O=C(N[C@@H]1CCN(C(=O)NC2CCCCC2)C1)O[C@@H]1CCN(c2cn[nH]c(=O)c2Cl)C1 5.00 to 9.00

# repeat for O=C(CC12CC3CC(CC(C3)C1)C2)Nc1nc(Cl)nc2c1ncn2[C@@H]1O[C@H](COP(=O)(O)CP(=O)(O)O)C(O)[C@@H]1O (stereo partly shown) 7.00 to 8.00

What about this molecule? O=P(O)(O)[C@@](CO)(COCc1nn[nH]n1)OC[C@H]1O[C@@H](c2ccc3c(N[C@@H]4CCc5ccccc54)nc(Cl)nn23)[C@H](O)[C@@H]1O ≥ 9.30

Would you kindly repeat that for CCOCC(CO)(OC[C@H]1O[C@@H](n2ncc3c(NC4CCCC4)nc(Cl)nc32)[C@H](O)[C@@H]1O)P(=O)(O)O (mixture of isomers) ? ≥ 7.00

How about O=C(NC12CC(F)(C1)C2)O[C@@H]1CCN(c2cn[nH]c(=O)c2Cl)C1 ? 5.00 to 9.00

O=C(N[C@H]1CC[C@H](F)CC1)O[C@@H]1CCN(c2cn[nH]c(=O)c2Cl)C1 , same question. 5.00 to 9.00

# repeat for COC[C@](C)(OC[C@H]1O[C@@H](n2ncc3c(NCC4CC4)nc(Cl)nc32)[C@H](O)[C@@H]1O)P(=O)(O)O ≥ 7.00

###

Please find below pIC50 data on CD73 (Homo sapiens (Human), UniProt P21589) compiled from the literature.
pIC50: −log10 of the molar value.

# get_value(readout= pIC50, system= CD73 (Homo sapiens (Human), UniProt P21589)) for O=C(NC1CCN(C(=O)c2ccc(C(F)(F)F)nc2)CC1)O[C@@H]1CCN(c2cn[nH]c(=O)c2Cl)C1 5.00 to 9.00

What do you get for CC(CCO)(OC[C@H]1O[C@@H](n2ncc3c(NC4CCCC4)nc(Cl)nc32)[C@H](O)[C@@H]1O)P(=O)(O)O (stereo partly drawn) ? ≥ 7.00

Also need O=C(N[C@H]1CCC[C@H]1C(F)(F)F)O[C@@H]1CCN(c2cn[nH]c(=O)c2Cl)C1 , thanks. 5.00 to 9.00

Likewise for CO[C@H]1CC[C@H](NC(=O)O[C@@H]2CCN(c3cn[nH]c(=O)c3Cl)C2)CC1 ? 5.00 to 9.00

Next entry: O=P(O)(O)C(COCc1nnn[nH]1)(COCc1nnn[nH]1)OC[C@H]1O[C@@H](c2ccc3c(NC4CCCC4)nc(Cl)nn23)[C@H](O)[C@@H]1O ≥ 9.30
